target: Sialic acid-binding Ig-like lectin 9 (Homo sapiens); test: Hs-Siglec9 ALPHAscreen SOP 20170721; parameters: scale not given: direction of the effect not stated beside the values; conditions: 10 µM
metric: Percent Effect
Form field: result (number plus unit)

Percent Effect lookup needed for `CC(=O)N1C[C@@H](c2ccsc2)[C@@H]2CN(Cc3cccc(Cl)c3)CC[C@@H]21` , thanks.
5.9%

Next entry: CC(C(=O)NCCCN1CCCCCC1=O)n1cncn1 (configuration not stated)
-11.5%

* * *

The compounds listed here are annotated with their Percent Effect.
target: AMP-activated protein kinase, AMPK (Homo sapiens) (UniProt P54646+O43741+P54619+Q9UGJ0+Q9Y478+Q13131+Q9UGI9); assay: AMP-dependent Kinase enzyme assay. An in vitro enzyme assay that detects ADP turnover that is directly proportional to AMPK activity. This uses naive AMPK that is activated during the assay with MK-8722; type: functional; parameters: scale not given: direction of the effect not stated beside the values; details: 30 µM
State the answer as a number, implicitly in %.

[[record]]
compound = "C[C@@H]1CN(C(=O)c2cnc(C3CC3)nc2)CC[C@@]1(O)C1CCOCC1"
unitlabel = "%"
valuemeasured = -4.34

[[record]]
compound = "CN(C)CC1(O)CCN(S(=O)(=O)c2ccc(F)c(F)c2)C1 (stereo not given)"
unitlabel = "%"
valuemeasured = -0.681


Percent Effect lookup needed for Cc1csc(Nc2cc(C3CCCCN3C)nc(C)n2)n1 (stereo not given) , thanks.
7.4

Next entry: CCc1nc(CN2CCCC(NCc3nc4cccnc4[nH]3)C2)no1 (stereo not given)
-9.6

Next entry: `O=C(COc1coc(CN2CCCCC2)cc1=O)Nc1ccccc1Cl`
6.82

* * *

Target: Ubiquitin-activating enzyme e1, putative (Leishmania donovani (strain BPK282A1)) (UniProt E9BSI1)
Sequence (whole entry): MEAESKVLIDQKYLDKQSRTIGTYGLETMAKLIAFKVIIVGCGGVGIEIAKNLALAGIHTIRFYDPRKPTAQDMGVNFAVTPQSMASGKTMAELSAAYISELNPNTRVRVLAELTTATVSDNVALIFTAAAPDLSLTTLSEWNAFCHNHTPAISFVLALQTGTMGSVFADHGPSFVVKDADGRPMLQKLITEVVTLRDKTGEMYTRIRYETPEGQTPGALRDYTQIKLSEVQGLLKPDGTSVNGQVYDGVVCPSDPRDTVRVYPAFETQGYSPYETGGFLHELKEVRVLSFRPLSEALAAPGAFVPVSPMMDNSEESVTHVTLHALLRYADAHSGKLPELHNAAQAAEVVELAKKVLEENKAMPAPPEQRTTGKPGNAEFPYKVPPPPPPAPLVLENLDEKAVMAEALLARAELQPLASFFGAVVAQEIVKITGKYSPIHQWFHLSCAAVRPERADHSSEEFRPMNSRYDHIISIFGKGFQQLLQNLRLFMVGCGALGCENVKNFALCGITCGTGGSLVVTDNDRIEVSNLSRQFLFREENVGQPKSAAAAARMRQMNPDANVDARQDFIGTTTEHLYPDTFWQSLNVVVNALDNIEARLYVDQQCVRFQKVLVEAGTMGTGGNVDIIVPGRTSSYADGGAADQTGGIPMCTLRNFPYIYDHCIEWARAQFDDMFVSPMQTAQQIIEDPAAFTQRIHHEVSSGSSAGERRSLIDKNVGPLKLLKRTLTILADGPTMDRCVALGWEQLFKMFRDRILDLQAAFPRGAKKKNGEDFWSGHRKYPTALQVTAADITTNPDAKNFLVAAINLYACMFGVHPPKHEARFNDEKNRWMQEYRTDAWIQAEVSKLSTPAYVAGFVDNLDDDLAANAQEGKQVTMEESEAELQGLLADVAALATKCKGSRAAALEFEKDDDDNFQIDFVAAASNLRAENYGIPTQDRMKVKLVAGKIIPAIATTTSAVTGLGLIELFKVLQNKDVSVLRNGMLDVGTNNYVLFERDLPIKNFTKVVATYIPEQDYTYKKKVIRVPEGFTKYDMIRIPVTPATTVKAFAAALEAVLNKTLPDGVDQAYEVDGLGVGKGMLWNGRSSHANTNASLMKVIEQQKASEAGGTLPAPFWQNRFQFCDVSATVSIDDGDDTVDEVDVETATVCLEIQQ
Assay: Leishmania donovani Ubiquitin Activating Enzyme (LdE1)
Type: functional
Set-up: scale not given: direction of the effect not stated beside the values
Settings: 30 µM
Potency and affinity values are given separately.
metric: Percent Effect
Form field: result (number plus unit)

Before answering, review these 3 worked examples.
[[record]]
chemicalsmiles = "NC(=O)c1ccc(S(=O)(=O)NC(=O)COc2ccc3c(c2)CCC3)cc1"
metric = "Percent Effect"
valuemeasured = "7.69%"

[[record]]
chemicalsmiles = "Cc1ccc(NC(=O)N2CCC(NC(=O)c3ccc(C)o3)CC2)cc1"
metric = "Percent Effect"
valuemeasured = "15.6%"

[[record]]
chemicalsmiles = "CCOCCN1CCn2c(C)nnc2C1"
metric = "Percent Effect"
valuemeasured = "19%"


Percent Effect lookup needed for `Cc1noc([C@@H]2CCCN2C(=O)C2CCN(C(=O)C3CCC3)CC2)n1` , thanks.
5.48%

Where these numbers come from: ChEMBL document CHEMBL3988442
